assay: AP1 Signaling Pathway (AID 357); settings: ME-180 (cervical carcinoma) AP-1-bla reporter, EGF-induced, beta-lactamase ratio, 5 h; at 7.69 µM (top of the series) unless noted;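 also: ME-180 reporter cells stimulated with EGF at its EC50 level; % is scaled to controls: 0 for no effect and ±100 for the full control effect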
Records with an inconclusive call do not appear.
Measured activity change, negative = inhibition, listed per entry for reference.
observedProperty: activity change, negative = inhibition (%)

[[record]]
smilesstructure = "Cc1cnc(CNc2ccnc(-c3ccc(C(=O)N(C)C)cc3)n2)cn1"
obsvalue = 9.07

[[record]]
smilesstructure = "O=c1c(-c2ccc(F)cc2)nc2cnc(N3CCOCC3)nc2n1C1CC1"
obsvalue = 16.2

[[record]]
smilesstructure = "COc1ccc2[nH]cc(CCNc3cc(-c4ccccc4CN(C)C)ncn3)c2c1"
obsvalue = 14.9

[[record]]
smilesstructure = "CN(C)C(=O)c1ccc(-c2nccc(Nc3ccc(F)cc3)n2)cc1"
obsvalue = -14.3

[[record]]
smilesstructure = "O=C(Nc1cccc(F)c1)N1CC[C@@]2(CCCN(C(=O)c3cnccn3)C2)C1"
obsvalue = 4.63


====

assay: NFAT Signaling Pathway (AID 444); conditions: Jurkat NFAT-bla M1, carbachol, beta-lactamase ratio, 5 h; at 7.69 µM (top of the series) unless noted;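 also: carbachol stimulus at about its EC50 of 1 µM final; % is scaled to controls: 0 for no effect and ±100 for the full control effect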
Inconclusive results are not listed.
observedProperty: activity change, negative = inhibition (%)

[[record]]
smilesstructure = "COc1ccc(NC(=O)N2CC[C@@]3(CCCN(C(=O)c4ccncc4)C3)C2)cc1"
obsvalue = 16.8

[[record]]
smilesstructure = "COc1ccc(-n2c(=O)c(-c3ccc(Cl)cc3)nc3cnc(N4CCOCC4)nc32)cc1"
obsvalue = 23.6

[[record]]
smilesstructure = "CC(=O)N1CCC[C@@]2(CCN(C(c3ccccc3)c3ccccc3)C2)C1"
obsvalue = 3.9

[[record]]
smilesstructure = "COc1cccc(Cn2c(=O)c(-c3cccc(C#N)c3)nc3cnc(Nc4ccccc4)nc32)c1"
obsvalue = -12.1

[[record]]
smilesstructure = "Cc1cnc(CNc2ccnc(-c3cccc(C#N)c3)n2)cn1"
obsvalue = 16.3


====

target: Cytochrome P450 3A4 (Homo sapiens); assay: qHTS Assay for Activators of Cytochrome P450 3A4 (AID 885); conditions: recombinant CYP3A4, Luciferin-PPXE luminescence, 60 min; series mostly up to 57.1 µM; also: nearly all actives have a fitted effect of over 65% in size
Calls of active or inactive are those of the source. Calls come from the whole dose curve; as a rule, active = well fitted activation curve with a large enough effect; inconclusive = small, poorly fitted or top-dose-only effect; inactive = no such curve, though single readings can be large or run the other way.
Labels: active, inactive

[[record]]
compound = "C[C@@H](CN(C)C)CN1c2ccccc2CCc2ccccc21"
tgt = "Cytochrome P450 3A4 (Homo sapiens)"
assignedcategory = "inactive"

[[record]]
compound = "CS(=O)(=O)Nc1cccc(-c2ccc3ncnc(NCc4cccnc4)c3c2)c1"
tgt = "Cytochrome P450 3A4 (Homo sapiens)"
assignedcategory = "inactive"

[[record]]
compound = "FC(F)(F)c1cc(CN2CCC3(CCNCC3)CC2)cc(C(F)(F)F)c1"
tgt = "Cytochrome P450 3A4 (Homo sapiens)"
assignedcategory = "inactive"

[[record]]
compound = "COCCn1c(=O)c(-c2cccc(Cl)c2)nc2cncnc21"
tgt = "Cytochrome P450 3A4 (Homo sapiens)"
assignedcategory = "inactive"

[[record]]
compound = "Cc1noc(C)c1C(=O)N1CCC2(CC1)CCN(c1ccncc1)CC2"
tgt = "Cytochrome P450 3A4 (Homo sapiens)"
assignedcategory = "inactive"

[[record]]
compound = "c1ccc(-c2ccc(N3CCCC4(CCNCC4)C3)cc2)cc1"
tgt = "Cytochrome P450 3A4 (Homo sapiens)"
assignedcategory = "inactive"

[[record]]
compound = "COc1ncc2nc(-c3ccc(Cl)cc3)c(=O)n(C)c2n1"
tgt = "Cytochrome P450 3A4 (Homo sapiens)"
assignedcategory = "inactive"

[[record]]
compound = "O=C(c1ccncc1)N1CCC2(CC1)CN(c1ccc(-c3ccccc3)cc1)C2"
tgt = "Cytochrome P450 3A4 (Homo sapiens)"
assignedcategory = "inactive"

[[record]]
compound = "COc1cccc(-c2nc(NCc3cnc(C)cn3)c3ccccc3n2)c1"
tgt = "Cytochrome P450 3A4 (Homo sapiens)"
assignedcategory = "inactive"

[[record]]
compound = "CN(Cc1ccco1)c1ncncc1-c1ccc2c(c1)OCO2"
tgt = "Cytochrome P450 3A4 (Homo sapiens)"
assignedcategory = "inactive"

[[record]]
compound = "COc1ccc(-n2c(=O)c(-c3ccc(F)c(F)c3)nc3cncnc32)cc1"
tgt = "Cytochrome P450 3A4 (Homo sapiens)"
assignedcategory = "inactive"

[[record]]
compound = "COc1ccccc1CN1CC[C@@]2(CCCN(S(=O)(=O)c3ccccc3)C2)C1"
tgt = "Cytochrome P450 3A4 (Homo sapiens)"
assignedcategory = "inactive"

[[record]]
compound = "CCCCCN(CCCCC)C(=O)[C@H](CCC(=O)O)NC(=O)c1ccc(Cl)c(Cl)c1"
tgt = "Cytochrome P450 3A4 (Homo sapiens)"
assignedcategory = "inactive"

[[record]]
compound = "COc1cc2c(cc1OC)C1Cc3ccc(OC)c(OC)c3CN1CC2 (stereo not drawn)"
tgt = "Cytochrome P450 3A4 (Homo sapiens)"
assignedcategory = "inactive"

[[record]]
compound = "COc1ncc2nc(-c3ccc(F)cc3)c(=O)n(Cc3ccc(F)cc3)c2n1"
tgt = "Cytochrome P450 3A4 (Homo sapiens)"
assignedcategory = "inactive"

[[record]]
compound = "COc1cccc(Cn2c(=O)c(-c3cccs3)nc3cnc(N4CCNCC4)nc32)c1"
tgt = "Cytochrome P450 3A4 (Homo sapiens)"
assignedcategory = "inactive"

[[record]]
compound = "Cc1noc(C)c1C(=O)N1CCC[C@@]2(CCN(C(=O)Nc3ccccc3)C2)C1"
tgt = "Cytochrome P450 3A4 (Homo sapiens)"
assignedcategory = "inactive"

[[record]]
compound = "O=C(c1ccncc1)N1CCC[C@@]2(CCN(Cc3ccccc3)C2)C1"
tgt = "Cytochrome P450 3A4 (Homo sapiens)"
assignedcategory = "inactive"

[[record]]
compound = "CN1CCN(c2ncc3nc(-c4cc(F)cc(F)c4)c(=O)n(CCC#N)c3n2)CC1"
tgt = "Cytochrome P450 3A4 (Homo sapiens)"
assignedcategory = "inactive"

[[record]]
compound = "COc1ccc2[nH]cc(CCNc3ccnc(-c4cccc(NS(C)(=O)=O)c4)n3)c2c1"
tgt = "Cytochrome P450 3A4 (Homo sapiens)"
assignedcategory = "inactive"

[[record]]
compound = "CN(C)Cc1ccccc1-c1ccc2ncnc(NCc3ccccc3)c2c1"
tgt = "Cytochrome P450 3A4 (Homo sapiens)"
assignedcategory = "inactive"

[[record]]
compound = "CN(C)c1ccc(-c2cncnc2-n2ccnc2)cc1"
tgt = "Cytochrome P450 3A4 (Homo sapiens)"
assignedcategory = "inactive"

[[record]]
compound = "COc1ccc2[nH]cc(CCNc3nc(-c4ccc(N(C)C)cc4)nc4ccccc34)c2c1"
tgt = "Cytochrome P450 3A4 (Homo sapiens)"
assignedcategory = "inactive"

[[record]]
compound = "O=C(Nc1cccc(F)c1)N1CCCC2(CCN(C(=O)c3cc(C(F)(F)F)cc(C(F)(F)F)c3)CC2)C1"
tgt = "Cytochrome P450 3A4 (Homo sapiens)"
assignedcategory = "inactive"

[[record]]
compound = "CN(C)C(=O)c1ccc(-c2ccc3ncnc(NCc4cccs4)c3c2)cc1"
tgt = "Cytochrome P450 3A4 (Homo sapiens)"
assignedcategory = "inactive"

[[record]]
compound = "Cc1cnc(CNc2ncncc2-c2ccc(N(C)C)cc2)cn1"
tgt = "Cytochrome P450 3A4 (Homo sapiens)"
assignedcategory = "inactive"

[[record]]
compound = "N#Cc1cccc(NC(=O)N2CCCC3(CCN(C(=O)c4cc(C(F)(F)F)cc(C(F)(F)F)c4)CC3)C2)c1"
tgt = "Cytochrome P450 3A4 (Homo sapiens)"
assignedcategory = "inactive"

[[record]]
compound = "Cn1c(=O)c(-c2ccc(Cl)cc2)nc2cnc(Oc3ccccc3)nc21"
tgt = "Cytochrome P450 3A4 (Homo sapiens)"
assignedcategory = "active"

[[record]]
compound = "O=C(c1cccc(F)c1)N1CCC2(CC1)CCN(c1ncccn1)CC2"
tgt = "Cytochrome P450 3A4 (Homo sapiens)"
assignedcategory = "active"

[[record]]
compound = "CC(C)CN1CCCC2(CCN(C(=O)c3csnn3)CC2)C1"
tgt = "Cytochrome P450 3A4 (Homo sapiens)"
assignedcategory = "inactive"

[[record]]
compound = "CS(=O)(=O)N1CCC2(CCCN(C(=O)Nc3cccc(F)c3)C2)CC1"
tgt = "Cytochrome P450 3A4 (Homo sapiens)"
assignedcategory = "inactive"

[[record]]
compound = "Cc1ccccc1-c1nccc(NCc2cccnc2)n1"
tgt = "Cytochrome P450 3A4 (Homo sapiens)"
assignedcategory = "inactive"

[[record]]
compound = "N#C/C(=C\\c1ccc(O)c(O)c1)C(=O)OCCc1cccs1"
tgt = "Cytochrome P450 3A4 (Homo sapiens)"
assignedcategory = "inactive"

[[record]]
compound = "CN(C)c1ccc(-c2cncnc2Nc2ccc(F)cc2)cc1"
tgt = "Cytochrome P450 3A4 (Homo sapiens)"
assignedcategory = "inactive"

[[record]]
compound = "Cc1noc(C)c1C(=O)N1CCC2(CCCN(Cc3ccccc3)C2)CC1"
tgt = "Cytochrome P450 3A4 (Homo sapiens)"
assignedcategory = "inactive"

[[record]]
compound = "COc1ccccc1-c1nc(N(C)C)c2ccccc2n1"
tgt = "Cytochrome P450 3A4 (Homo sapiens)"
assignedcategory = "inactive"

[[record]]
compound = "COc1ccc2c(c1)OCC(Cc1ccc(OC)c(OC(C)=O)c1)C2=O (stereo not drawn)"
tgt = "Cytochrome P450 3A4 (Homo sapiens)"
assignedcategory = "inactive"

[[record]]
compound = "Cn1c(=O)c(-c2cc(F)cc(F)c2)nc2cnc(N3CCNCC3)nc21"
tgt = "Cytochrome P450 3A4 (Homo sapiens)"
assignedcategory = "inactive"

[[record]]
compound = "Cc1noc(C)c1-c1ccc2ncnc(N3CCOCC3)c2c1"
tgt = "Cytochrome P450 3A4 (Homo sapiens)"
assignedcategory = "inactive"

[[record]]
compound = "COC(=O)c1c(OC)cc2c(c1C)Oc1c(Cl)c(O)c(Cl)c(C)c1C(=O)O2"
tgt = "Cytochrome P450 3A4 (Homo sapiens)"
assignedcategory = "inactive"

[[record]]
compound = "COc1ccc(-n2c(=O)c(-c3cc(F)cc(F)c3)nc3cncnc32)cc1"
tgt = "Cytochrome P450 3A4 (Homo sapiens)"
assignedcategory = "inactive"

[[record]]
compound = "COC(=O)[C@@H]1C2CC3c4[nH]c5cc(OC)ccc5c4CCN3CC2C[C@H](OC(=O)c2cc(OC)c(OC)c(OC)c2)C1OC (stereo partly drawn)"
tgt = "Cytochrome P450 3A4 (Homo sapiens)"
assignedcategory = "inactive"

[[record]]
compound = "Cc1noc(C)c1-c1nc(NCc2cccs2)c2ccccc2n1"
tgt = "Cytochrome P450 3A4 (Homo sapiens)"
assignedcategory = "inactive"

